# maps each entry to its inhibition at 20 µM
Experimental System: human SOS1 (loading of human K-Ras^G12C-GDP with fluorescent GTP-analog) (Homo sapiens, UniProt Q07889)
Protocol: Biochemical assay 3: K-Ras^G12C activation assay by hSOS1 (HTRF)
Condition Details: read-out: Assay 3 (KRAS-Activation by SOS no GTP) activity expressed as % inhibition at 20 μM; no GTP; at 20 μM

>  <Compound>
COc1cc2nc(C)nc(N[C@@H](C)c3ccc(-c4cccc(-c5nnc(C)o5)c4)s3)c2cc1OC (stereo in doubt)

>  <Unit Tag>
%

>  <inhibition at 20 µM>
11

$$$$
>  <Compound>
COc1cc2nc(C)nc(N[C@@H](C)c3ccc(-c4cccc(C(=O)N(C)C)c4)s3)c2cc1OC (stereo in doubt)

>  <Unit Tag>
%

>  <inhibition at 20 µM>
52

$$$$
>  <Compound>
COc1cc2nc(C)nc(NC(C)c3ccc(-c4cccc(CCO)c4)s3)c2cc1OC (stereo not shown)

>  <Unit Tag>
%

>  <inhibition at 20 µM>
45

$$$$
>  <Compound>
COc1cc2nc(C)nc(N[C@H](C)c3cccc(-c4ccc(OCc5ccccc5)cc4)c3)c2cc1OC

>  <Unit Tag>
%

>  <inhibition at 20 µM>
38

$$$$

---

Experimental System: K-Ras^G12C : hSOS1 interaction (Homo sapiens)
Protocol: Biochemical assay 1: K-Ras^G12C interaction assay with hSOS1 (HTRF)
Assay type: binding
Condition Details: read-out: Assay 1 (KRAS-SOS Interaction) activity expressed as % inhibition at 20 μM

>  <Compound>
COc1cc2nc(C)nc(NC(C)c3cc4cccc(O)c4o3)c2cc1OC (stereo not shown)

>  <inhibition at 20 µM, %>
40

$$$$
>  <Compound>
COc1cc2nc(C)nc(N[C@H](C)c3cccc(-c4cccc(OCc5ccccc5)c4)c3)c2cc1OC

>  <inhibition at 20 µM, %>
52

$$$$
>  <Compound>
COc1cc2nc(C)nc(NC(C)c3ccc(-c4ccccc4CNc4ccccc4)s3)c2cc1OC (stereo not shown)

>  <inhibition at 20 µM, %>
26

$$$$
>  <Compound>
COc1cc2nc(C)nc(N[C@H](C)c3cc4cccc(OC)c4o3)c2cc1OC (stereo in doubt)

>  <inhibition at 20 µM, %>
53

$$$$

---

Experimental System: human SOS1 (loading of human K-Ras^G12C-GDP with fluorescent GTP-analog) (Homo sapiens, UniProt Q07889)
Protocol: Biochemical assay 3: K-Ras^G12C activation assay by hSOS1 (HTRF)
Condition Details: no GTP; read-out: Assay 3 (KRAS-Activation by SOS no GTP) activity expressed as IC50
pIC50: −log10 of the molar value. Structures can show the parent of a compound that is named as a salt.
Below, each entry is listed alongside its reported pIC50.

>  <Molecule>
COc1cc2nc(C)nc(NC(C)c3cc(-c4ccc(F)cc4CN)cs3)c2cc1OC (centres unmarked)

>  <pIC50>
6.87

$$$$
>  <Molecule>
COc1cc2nc(C)nc(NC(C)c3cc(C)cc4[nH]ncc34)c2cc1OC (centres unmarked)

>  <pIC50>
5.09

$$$$
>  <Molecule>
COc1cc2nc(C)nc(NC(C)c3cc(-c4cnc5n4CCC5)cs3)c2cc1OC (centres unmarked)

>  <pIC50>
5.60

$$$$
>  <Molecule>
COc1cc2nc(C)nc(N[C@H](C)c3cccc(C(N)=O)c3)c2cc1OC

>  <pIC50>
5.17

$$$$
>  <Molecule>
COc1cc2nc(C)nc(N[C@H](C)c3ccc(C#N)cc3)c2cc1OC

>  <pIC50>
5.56

$$$$
>  <Molecule>
COc1cc2nc(C)nc(N[C@H](C)c3cccc(-c4ccccc4)c3)c2cc1OC

>  <pIC50>
6.09

$$$$
>  <Molecule>
COc1cc2nc(C)nc(N[C@@H](C)c3ccc(-c4ccccc4C(=O)N(C)C)s3)c2cc1OC (racemic)

>  <pIC50>
5.34

$$$$
>  <Molecule>
COc1cc2nc(C)nc(N[C@H](C)c3cccc(-c4cccc5[nH]ccc45)c3)c2cc1OC

>  <pIC50>
5.92

$$$$
>  <Molecule>
COc1cc2nc(C)nc(N[C@H](C)c3cccc(-c4cnc5n4CCC5)c3)c2cc1OC

>  <pIC50>
5.96

$$$$
>  <Molecule>
CCC/C=C/c1ccc([C@H](C)Nc2nc(C)nc3cc(OC)c(OC)cc23)s1 (racemic)

>  <pIC50>
4.97

$$$$
>  <Molecule>
COc1cc2nc(C)nc(N[C@H](C)c3cccc(-c4cccc(OC(F)(F)F)c4)c3)c2cc1OC

>  <pIC50>
4.96

$$$$
>  <Molecule>
COc1cc2nc(C)nc(N[C@H](C)c3cccc(-c4cccc5cnccc45)c3)c2cc1OC

>  <pIC50>
5.52

$$$$
>  <Molecule>
COc1cc2nc(C)nc(NC(C)c3ccc(-c4ccccc4CN4CCNCC4)s3)c2cc1OC (centres unmarked) [Example 305, hydrochloride]

>  <pIC50>
7.23

$$$$
>  <Molecule>
COc1cc2nc(C)nc(NC(C)c3ccc(-c4ccccc4CN4CC[C@H](F)C4)s3)c2cc1OC (some centres unmarked)

>  <pIC50>
6.63

$$$$
>  <Molecule>
COc1cc2nc(C)nc(NC(C)c3cccc4cnn(C)c34)c2cc1OC (centres unmarked)

>  <pIC50>
5.21

$$$$
>  <Molecule>
COc1cc2nc(C)nc(NC(C)c3ccc(-c4ccccc4CNCC(=O)c4c[nH]c5ccccc45)s3)c2cc1OC (centres unmarked)

>  <pIC50>
6.58

$$$$
>  <Molecule>
COc1cc2nc(C)nc(NC(C)c3cccc4c3CCO4)c2cc1OC (centres unmarked)

>  <pIC50>
6.23

$$$$
